- Tested on: PfAsnRS cKD P. falciparum line
- PROTOCOL: microbe, parasite or virus in culture
- Type: cell-based, Plasmodium falciparum
- STUDY_CONDITIONS: Plasmodium falciparum, PfAsnRS line, 500 nM aTc; individual repeats
MEASUREMENT_KIND: pIC50
One number for each entry, as −log10 of the molar value.

q: Identify measured pIC50 corresponding to Nc1ncnc2cc(-c3cccc(S(N)(=O)=O)c3)sc12
a: 6.91

---

- Tested on: PfCA cKD P. falciparum line
- PROTOCOL: microbe, parasite or virus in culture
- Format: cell-based, Plasmodium falciparum
- STUDY_CONDITIONS: Plasmodium falciparum, PfCA line, 500 nM aTc; individual repeats
MEASUREMENT_KIND: IC50

q: Please list IC50 recorded for the molecule Nc1ncnc2cc(-c3cccc(S(N)(=O)=O)c3)sc12 [OSM-S-106]
a: 29.2 nM

---

- SUBJECT_OF_TEST: PfAsnRS (Plasmodium falciparum)
- Sequence (O96198 entry or part of it): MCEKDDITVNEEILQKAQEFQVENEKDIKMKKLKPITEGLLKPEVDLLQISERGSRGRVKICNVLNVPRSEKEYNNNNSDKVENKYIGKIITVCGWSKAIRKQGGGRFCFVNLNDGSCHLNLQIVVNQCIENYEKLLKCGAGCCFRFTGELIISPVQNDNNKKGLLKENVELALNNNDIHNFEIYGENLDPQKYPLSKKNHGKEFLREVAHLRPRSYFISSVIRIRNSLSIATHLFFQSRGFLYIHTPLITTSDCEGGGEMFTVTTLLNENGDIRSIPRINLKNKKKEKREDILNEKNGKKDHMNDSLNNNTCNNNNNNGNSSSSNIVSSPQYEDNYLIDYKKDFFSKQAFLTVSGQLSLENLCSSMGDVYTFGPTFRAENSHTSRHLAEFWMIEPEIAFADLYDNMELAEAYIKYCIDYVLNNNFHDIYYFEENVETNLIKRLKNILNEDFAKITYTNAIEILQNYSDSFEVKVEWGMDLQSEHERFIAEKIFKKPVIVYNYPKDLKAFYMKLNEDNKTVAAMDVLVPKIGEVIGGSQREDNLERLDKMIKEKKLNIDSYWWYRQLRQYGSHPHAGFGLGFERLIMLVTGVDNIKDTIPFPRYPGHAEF
- PROTOCOL: biochemical
- STUDY_CONDITIONS: concentration needed to induce 50% inhibition of ATP consumption
MEASUREMENT_KIND: IC50

q: Look up and report measured IC50 (PfAsnRS (Plasmodium falciparum)) for the following compound: Nc1ncnc2cc(-c3cccc(S(N)(=O)=O)c3)sc12
a: ~1000 nM

---

- System: Dd2 parasites selected with OSM-S-106
- PROTOCOL: Sensitivity of ramp-up OSM-S-106-selected Dd2 clones
- Type: cell-based
- STUDY_CONDITIONS: Plasmodium falciparum, DD2, parasite Dd2-B2-2 (parent)
MEASUREMENT_KIND: IC50 (nM)
Give bare numbers, in nM.

q: Find IC50 for Nc1ncnc2cc(-c3cccc(S(N)(=O)=O)c3)sc12 on Dd2 parasites selected with OSM-S-106 and write it down.
a: 79

---

- SUBJECT_OF_TEST: UniProt O96198
- PROTOCOL: biochemical
- STUDY_CONDITIONS: IC50, ATP consumption, minus E. coli tRNA, 0.5 μM enzyme, […] (Fig. 3B)
MEASUREMENT_KIND: IC50

q: Provide IC50, tested on UniProt O96198, for Nc1ncnc2cc(-c3cccc(S(N)(=O)=O)c3)sc12 .
a: > 500 µM

---

- SUBJECT_OF_TEST: PfAsnRS (Plasmodium falciparum)
- PROTOCOL: biochemical
- STUDY_CONDITIONS: IC50, ATP consumption, 0.05 μM PfAsnRS, E. coli tRNA present, 37 °C, 1 h (Fig. 3C, D)
MEASUREMENT_KIND: IC50 (µM)
Give bare numbers, in µM.

Nc1ncnc2cc(-c3cccc(S(N)(=O)=O)c3)sc12 [OSM-S-106] ... 6.2

Would you kindly look at the next entry?
q: Give reported IC50 value for Nc1ncnc2c1ncn2[C@@H]1O[C@H](COS(N)(=O)=O)[C@@H](O)[C@H]1O [AMS, adenosine 5’-O-sulfamate, reference compound]
a: 0.19

---

- System: Dd2 parasites selected with OSM-S-106
- PROTOCOL: Sensitivity of ramp-up OSM-S-106-selected Dd2 clones
- Format: cell-based
- STUDY_CONDITIONS: Plasmodium falciparum, DD2, parasite Dd2-B2-3 (parent)
MEASUREMENT_KIND: IC50 (nM)
One number for each entry, in nM.

q: Using known records, supply IC50 for Nc1ncnc2cc(-c3cccc(S(N)(=O)=O)c3)sc12 [OSM-S-106]
a: 80

---

- SUBJECT_OF_TEST: UniProtKB O96198
- PROTOCOL: biochemical
- STUDY_CONDITIONS: IC50, ATP consumption, plus E. coli tRNA, 0.5 μM enzyme, 37 °C, […] (Fig. 3B)
MEASUREMENT_KIND: pIC50
One number for each entry, as −log10 of the molar value.

q: Consider the molecule Nc1ncnc2cc(-c3cccc(S(N)(=O)=O)c3)sc12 . State its measured pIC50.
a: 5.14

---

- SUBJECT_OF_TEST: PfAsnRS (Plasmodium falciparum)
- PROTOCOL: biochemical
MEASUREMENT_KIND: IC50

q: Please list IC50 recorded for the compound Nc1ncnc2cc(-c3cccc(OS(N)(=O)=O)c3)sc12
a: > 100 µM

---

- System: P. falciparum Dd2-B2 clone
- PROTOCOL: microbe, parasite or virus in culture
- Assay type: cell-based, Plasmodium falciparum
- STUDY_CONDITIONS: Plasmodium falciparum, DD2, read-out: Mean IC50 + SEM (N)
MEASUREMENT_KIND: IC50 (nM)
Give bare numbers, in nM.

q: Please look at this compound and report its IC50: Cc1cc(Nc2ccc(S(F)(F)(F)(F)F)cc2)n2nc(C(C)(F)F)nc2n1
a: 22.6

---

- Test system: PfGDH3 cKD P. falciparum line
- PROTOCOL: microbe, parasite or virus in culture
- Format: cell-based, Plasmodium falciparum
- STUDY_CONDITIONS: Plasmodium falciparum, read-out: Mean IC50 with low (1 or […])/ no aTc, PfGDH3 knockdown, no aTc
MEASUREMENT_KIND: pIC50
Numbers only, as −log10 of the molar value.

q: Indicate its recorded pIC50; the compound in question is Nc1ncnc2cc(-c3cccc(S(N)(=O)=O)c3)sc12 [OSM-S-106]
a: 7.34

---

- PROTOCOL: Solubility
- Assay type: physicochemical
- STUDY_CONDITIONS: pH 2, simulated gastric fluid
MEASUREMENT_KIND: solubility

q: Check the records and state solubility for Nc1ncnc2cc(-c3cccc(S(N)(=O)=O)c3)sc12 [OSM-S-106]
a: 50 to 100 µg/mL

---

- SUBJECT_OF_TEST: HsAsnRS (Homo sapiens)
- Construct: HsAsnRS (residues M1–P548) and CDHsAsnRS (residues A98–P548); His6 (N, cleaved yes); made in house; host or cells: E. coli BL21 (DE3), pET11a
- Sequence (O43776 whole entry, the tested form may be a part): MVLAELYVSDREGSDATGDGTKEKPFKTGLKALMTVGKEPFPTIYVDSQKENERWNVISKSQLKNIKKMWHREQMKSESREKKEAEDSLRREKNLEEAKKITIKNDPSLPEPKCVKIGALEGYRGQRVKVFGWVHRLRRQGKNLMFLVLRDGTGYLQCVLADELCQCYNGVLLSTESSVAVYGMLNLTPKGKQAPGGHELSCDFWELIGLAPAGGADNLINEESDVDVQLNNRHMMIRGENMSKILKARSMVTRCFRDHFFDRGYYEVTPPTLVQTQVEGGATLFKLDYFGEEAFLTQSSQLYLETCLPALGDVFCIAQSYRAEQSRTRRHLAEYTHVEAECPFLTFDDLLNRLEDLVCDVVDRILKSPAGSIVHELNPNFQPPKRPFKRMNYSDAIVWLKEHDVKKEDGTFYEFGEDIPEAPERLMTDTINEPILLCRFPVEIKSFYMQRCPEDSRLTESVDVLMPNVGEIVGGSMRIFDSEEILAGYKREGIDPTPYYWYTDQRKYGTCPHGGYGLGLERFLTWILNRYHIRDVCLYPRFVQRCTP
- PROTOCOL: ATP consumption assay (Kinase-Glo), HsAsnRS
- Format: biochemical
- STUDY_CONDITIONS: 0.2 μM HsAsnRS, E. coli tRNA present, 37 °C, 1 h (Fig. 3C, D)
pIC50: −log10 of the molar value.
MEASUREMENT_KIND: pIC50

Nc1ncnc2cc(-c3cccc(OS(N)(=O)=O)c3)sc12 ... < 4.00

Could you now look at the following compound, please?
q: Specify measured pIC50 for Nc1ncnc2cc(-c3cccc(S(N)(=O)=O)c3)sc12 .
a: < 4.00

---

- System: P. falciparum Dd2 parent
- PROTOCOL: 72 h sensitivity of wildtype Dd2 parent line
- Format: cell-based, Plasmodium falciparum
- STUDY_CONDITIONS: Plasmodium falciparum, DD2, Dd2 parent; individual experiments
MEASUREMENT_KIND: IC50 (nM)
Numbers only, in nM.

q: Please report the measured IC50 for Nc1ncnc2cc(-c3cccc(S(N)(=O)=O)c3)sc12 [OSM-S-106]
a: 57

---

- Tested on: Dd2 parasites selected with OSM-S-106
- PROTOCOL: Sensitivity of ramp-up OSM-S-106-selected Dd2 clones
- Format: cell-based
- STUDY_CONDITIONS: Plasmodium falciparum, DD2, parasite Dd2-OSM-3H7
MEASUREMENT_KIND: IC50
Units required after the number.

q: Given Nc1ncnc2cc(-c3cccc(S(N)(=O)=O)c3)sc12 [OSM-S-106] , respond with its IC50.
a: 220 nM

---

- Test system: P. falciparum (3D7)
- PROTOCOL: Activity against P. falciparum 3D7 cultures, 72 h (PfLDH growth inhibition / flow cytometry)
- Format: cell-based, Plasmodium falciparum
- STUDY_CONDITIONS: Plasmodium falciparum, 3D7, 72 h, read-out: Pf3D7 IC50 (72h), individual biological repeats (source data of Table 1)
Assignment: determine reported IC50 for the given compounds.
Give bare numbers, in µM.

Example entries begin here.
CNS(=O)(=O)c1cccc(-c2cc3ncnc(N)c3s2)c1 ... 12.7
Nc1ncnc2cc(-c3cccc(COS(N)(=O)=O)c3)sc12 ... 1.1
NS(=O)(=O)c1cccc(-c2cc3nc[nH]c(=O)c3s2)c1 ... 19.2

q: Could you please provide reported IC50 for Cc1ccc(S(N)(=O)=O)cc1-c1cc2ncnc(N)c2s1 ? Thanks!
a: 8.33

---

- Test system: Dd2 parasites selected with OSM-S-106
- PROTOCOL: Sensitivity of ramp-up OSM-S-106-selected Dd2 clones
- Assay type: cell-based
- STUDY_CONDITIONS: Plasmodium falciparum, DD2, parasite Dd2-OSM-2A9
MEASUREMENT_KIND: pIC50
Numbers only, as −log10 of the molar value.

q: Dear colleague, please send me the reported pIC50 for Nc1ncnc2cc(-c3cccc(S(N)(=O)=O)c3)sc12 when you can.
a: 6.49
